The measurements presented in this section are drawn from patent EP4700044A1.

Each entry below carries its reported EC50(nM), dual-luciferase reporter gene assay, iLite FGF21 assay ready cells.
# target or test system: FGFR1c, P11362
# Sequence (P11362 22-822): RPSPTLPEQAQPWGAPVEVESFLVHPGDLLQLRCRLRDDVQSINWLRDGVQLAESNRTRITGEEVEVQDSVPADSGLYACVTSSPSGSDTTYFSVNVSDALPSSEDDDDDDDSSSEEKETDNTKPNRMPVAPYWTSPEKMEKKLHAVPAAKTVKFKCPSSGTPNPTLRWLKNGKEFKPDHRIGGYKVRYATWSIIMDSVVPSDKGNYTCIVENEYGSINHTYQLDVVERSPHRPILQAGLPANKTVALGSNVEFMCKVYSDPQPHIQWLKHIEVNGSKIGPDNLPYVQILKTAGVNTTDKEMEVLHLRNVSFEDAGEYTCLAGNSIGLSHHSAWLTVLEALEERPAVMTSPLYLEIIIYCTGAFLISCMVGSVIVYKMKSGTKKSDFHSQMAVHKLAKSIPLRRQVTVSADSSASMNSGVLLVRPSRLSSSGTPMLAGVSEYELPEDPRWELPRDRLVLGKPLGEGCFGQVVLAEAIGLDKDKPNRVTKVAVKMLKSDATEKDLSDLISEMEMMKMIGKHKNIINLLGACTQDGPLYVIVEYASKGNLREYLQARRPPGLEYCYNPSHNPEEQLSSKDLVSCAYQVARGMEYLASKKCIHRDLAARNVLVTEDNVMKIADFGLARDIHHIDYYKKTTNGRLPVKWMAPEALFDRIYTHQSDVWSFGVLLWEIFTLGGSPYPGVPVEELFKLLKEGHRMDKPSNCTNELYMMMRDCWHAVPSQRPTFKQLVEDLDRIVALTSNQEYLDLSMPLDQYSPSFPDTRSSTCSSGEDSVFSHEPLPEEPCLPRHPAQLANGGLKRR
# method notes: cell-based or functional assay
property label: EC50(nM), dual-luciferase reporter gene assay, iLite FGF21 assay ready cells

>  <binder>
Compound 5.4, Q9NSA1 29-209 (ligand, here or on the partner: Cys 122 (K122C) carries the albumin-binding agent of Example 2.1, C18 Dicarboxylic Acid-AEEA-gGlu-gGlu-Lys(bromoacetyl)-COOH (bromine displaced by the thiol)) HPIPDSSPLLQFGGQVRQRYLYTDDAQQTEAHLEIREDGTVGGAADQSPESLLQLKALKPGVIQILGVKTSRFLCQRPDGALYGSLHFDPEACSFRERLLEDGYNVYQSEAHGLPLHLPGNCSPHRDPAPRGPARFLPLPGLPPAPPEPPGILAPQPPDVGSSDPLSMVGGSQGRSPSYES

>  <reading unit>
nM

>  <endpoint value>
0.99

$$$$
>  <binder>
Compound 5.15, Q9NSA1 29-209 (ligand, here or on the partner: Cys 125 (H125C) carries the albumin-binding agent of Example 2.4, C20 Dicarboxylic Acid-gGlu-AEEA-AEEA-Lys(bromoacetyl)-COOH (bromine displaced by the thiol)) HPIPDSSPLLQFGGQVRQRYLYTDDAQQTEAHLEIREDGTVGGAADQSPESLLQLKALKPGVIQILGVKTSRFLCQRPDGALYGSLHFDPEACSFRERLLEDGYNVYQSEAHGLPLHLPGNKSPCRDPAPRGPARFLPLPGLPPAPPEPPGILAPQPPDVGSSDPLSMVGGSQGRSPSYES

>  <reading unit>
nM

>  <endpoint value>
0.47

$$$$
>  <binder>
Human mature FGF21 mutant RGE (FGF21RGE), Q9NSA1 29-209 (ligand) HPIPDSSPLLQFGGQVRQRYLYTDDAQQTEAHLEIREDGTVGGAADQSPESLLQLKALKPGVIQILGVKTSRFLCQRPDGALYGSLHFDPEACSFRERLLEDGYNVYQSEAHGLPLHLPGNKSPHRDPAPRGPARFLPLPGLPPAPPEPPGILAPQPPDVGSSDPLSMVGGSQGRSPSYES

>  <reading unit>
nM

>  <endpoint value>
0.25

$$$$
>  <binder>
Compound 5.6, Q9NSA1 29-209 (ligand, here or on the partner: Cys 38 (D38C) carries the albumin-binding agent of Example 2.2, C18 Dicarboxylic Acid-gGlu-AEEA-AEEA-Lys(bromoacetyl)-COOH (bromine displaced by the thiol)) HPIPDSSPLLQFGGQVRQRYLYTDDAQQTEAHLEIRECGTVGGAADQSPESLLQLKALKPGVIQILGVKTSRFLCQRPDGALYGSLHFDPEACSFRERLLEDGYNVYQSEAHGLPLHLPGNKSPHRDPAPRGPARFLPLPGLPPAPPEPPGILAPQPPDVGSSDPLSMVGGSQGRSPSYES

>  <reading unit>
nM

>  <endpoint value>
2.06

$$$$
>  <binder>
Compound 5.5, Q9NSA1 29-209 (ligand, here or on the partner: Cys 125 (H125C) carries the albumin-binding agent of Example 2.1, C18 Dicarboxylic Acid-AEEA-gGlu-gGlu-Lys(bromoacetyl)-COOH (bromine displaced by the thiol)) HPIPDSSPLLQFGGQVRQRYLYTDDAQQTEAHLEIREDGTVGGAADQSPESLLQLKALKPGVIQILGVKTSRFLCQRPDGALYGSLHFDPEACSFRERLLEDGYNVYQSEAHGLPLHLPGNKSPCRDPAPRGPARFLPLPGLPPAPPEPPGILAPQPPDVGSSDPLSMVGGSQGRSPSYES

>  <reading unit>
nM

>  <endpoint value>
0.52

$$$$
>  <binder>
Compound 5.1, Q9NSA1 29-209 (ligand, here or on the partner: Cys 30 (E30C) carries the albumin-binding agent of Example 2.1, C18 Dicarboxylic Acid-AEEA-gGlu-gGlu-Lys(bromoacetyl)-COOH (bromine displaced by the thiol)) HPIPDSSPLLQFGGQVRQRYLYTDDAQQTCAHLEIREDGTVGGAADQSPESLLQLKALKPGVIQILGVKTSRFLCQRPDGALYGSLHFDPEACSFRERLLEDGYNVYQSEAHGLPLHLPGNKSPHRDPAPRGPARFLPLPGLPPAPPEPPGILAPQPPDVGSSDPLSMVGGSQGRSPSYES

>  <reading unit>
nM

>  <endpoint value>
4.61

$$$$
>  <binder>
Human mature FGF21 mutant H125C (FGF21H125C), Q9NSA1 29-209 (ligand) HPIPDSSPLLQFGGQVRQRYLYTDDAQQTEAHLEIREDGTVGGAADQSPESLLQLKALKPGVIQILGVKTSRFLCQRPDGALYGSLHFDPEACSFRERLLEDGYNVYQSEAHGLPLHLPGNKSPCRDPAPRGPARFLPLPGLPPAPPEPPGILAPQPPDVGSSDPLSMVGGSQGRSPSYES

>  <reading unit>
nM

>  <endpoint value>
0.28

$$$$
>  <binder>
Compound 5.14, Q9NSA1 29-209 (ligand, here or on the partner: Cys 122 (K122C) carries the albumin-binding agent of Example 2.4, C20 Dicarboxylic Acid-gGlu-AEEA-AEEA-Lys(bromoacetyl)-COOH (bromine displaced by the thiol)) HPIPDSSPLLQFGGQVRQRYLYTDDAQQTEAHLEIREDGTVGGAADQSPESLLQLKALKPGVIQILGVKTSRFLCQRPDGALYGSLHFDPEACSFRERLLEDGYNVYQSEAHGLPLHLPGNCSPHRDPAPRGPARFLPLPGLPPAPPEPPGILAPQPPDVGSSDPLSMVGGSQGRSPSYES

>  <reading unit>
nM

>  <endpoint value>
1.02

$$$$
>  <binder>
Human mature FGF21 mutant E30C (FGF21E30C), Q9NSA1 29-209 (ligand) HPIPDSSPLLQFGGQVRQRYLYTDDAQQTCAHLEIREDGTVGGAADQSPESLLQLKALKPGVIQILGVKTSRFLCQRPDGALYGSLHFDPEACSFRERLLEDGYNVYQSEAHGLPLHLPGNKSPHRDPAPRGPARFLPLPGLPPAPPEPPGILAPQPPDVGSSDPLSMVGGSQGRSPSYES

>  <reading unit>
nM

>  <endpoint value>
1.31

$$$$
>  <binder>
Human mature FGF21 mutant D46C (FGF21D46C), Q9NSA1 29-209 (ligand) HPIPDSSPLLQFGGQVRQRYLYTDDAQQTEAHLEIREDGTVGGAACQSPESLLQLKALKPGVIQILGVKTSRFLCQRPDGALYGSLHFDPEACSFRERLLEDGYNVYQSEAHGLPLHLPGNKSPHRDPAPRGPARFLPLPGLPPAPPEPPGILAPQPPDVGSSDPLSMVGGSQGRSPSYES

>  <reading unit>
nM

>  <endpoint value>
0.28

$$$$
>  <binder>
Compound 5.9, Q9NSA1 29-209 (ligand, here or on the partner: Cys 125 (H125C) carries the albumin-binding agent of Example 2.2, C18 Dicarboxylic Acid-gGlu-AEEA-AEEA-Lys(bromoacetyl)-COOH (bromine displaced by the thiol)) HPIPDSSPLLQFGGQVRQRYLYTDDAQQTEAHLEIREDGTVGGAADQSPESLLQLKALKPGVIQILGVKTSRFLCQRPDGALYGSLHFDPEACSFRERLLEDGYNVYQSEAHGLPLHLPGNKSPCRDPAPRGPARFLPLPGLPPAPPEPPGILAPQPPDVGSSDPLSMVGGSQGRSPSYES

>  <reading unit>
nM

>  <endpoint value>
1.18

$$$$
>  <binder>
Compound 5.13, Q9NSA1 29-209 (ligand, here or on the partner: Cys 46 (D46C) carries the albumin-binding agent of Example 2.4, C20 Dicarboxylic Acid-gGlu-AEEA-AEEA-Lys(bromoacetyl)-COOH (bromine displaced by the thiol)) HPIPDSSPLLQFGGQVRQRYLYTDDAQQTEAHLEIREDGTVGGAACQSPESLLQLKALKPGVIQILGVKTSRFLCQRPDGALYGSLHFDPEACSFRERLLEDGYNVYQSEAHGLPLHLPGNKSPHRDPAPRGPARFLPLPGLPPAPPEPPGILAPQPPDVGSSDPLSMVGGSQGRSPSYES

>  <reading unit>
nM

>  <endpoint value>
1.84

$$$$
